- System Name: CDK4 (Homo sapiens, UniProt P11802)
- Construct: purchased Carna Company
- Sequence (P11802 whole entry): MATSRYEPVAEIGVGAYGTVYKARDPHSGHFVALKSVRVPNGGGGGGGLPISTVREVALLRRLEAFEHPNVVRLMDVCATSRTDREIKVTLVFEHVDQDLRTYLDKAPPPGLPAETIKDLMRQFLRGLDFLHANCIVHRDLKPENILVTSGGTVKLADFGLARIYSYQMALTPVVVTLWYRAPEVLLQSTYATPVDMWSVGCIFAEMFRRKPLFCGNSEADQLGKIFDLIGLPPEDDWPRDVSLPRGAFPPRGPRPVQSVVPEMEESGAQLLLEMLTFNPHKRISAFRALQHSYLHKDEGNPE
- Sequence (P30281 whole entry partner): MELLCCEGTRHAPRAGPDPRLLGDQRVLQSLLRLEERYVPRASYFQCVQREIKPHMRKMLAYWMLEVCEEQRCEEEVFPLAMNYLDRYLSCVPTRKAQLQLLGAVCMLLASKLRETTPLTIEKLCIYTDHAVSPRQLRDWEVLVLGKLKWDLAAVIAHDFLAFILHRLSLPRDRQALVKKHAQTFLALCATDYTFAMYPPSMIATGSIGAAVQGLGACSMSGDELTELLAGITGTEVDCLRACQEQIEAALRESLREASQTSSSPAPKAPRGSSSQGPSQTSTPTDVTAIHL
- Assay: CDK enzymology experiment in vitro, capillary mobility shift assay (MSA)
- Format: biochemical
- Measurement Context: read-out: CDK4 (nM) inhibitory IC50
# IC50 per record follows

Please review the following examples before continuing.
| Smiles Structure | System Name | Measured Value |
| --- | --- | --- |
| Cn1cc(-c2ccc(S(=O)(=O)N3CCC(Nc4ncc(C#N)c(N[C@H]5CCC[C@@H]5O)n4)CC3)cc2)cn1 | CDK4 (Homo sapiens, UniProt P11802) | 2.5 to 10 nM |
| Cn1cc(S(=O)(=O)N2CCC(Nc3ncc(C#N)c(N[C@H]4CCOC4)n3)CC2)cn1 | CDK4 (Homo sapiens, UniProt P11802) | 50 to 100 nM |
| N#Cc1cnc(NC2CCN(S(=O)(=O)c3ccc(C4=CCNCC4)cc3)CC2)nc1N[C@@H]1CCC[C@H]1O | CDK4 (Homo sapiens, UniProt P11802) | 2.5 to 10 nM |
| CN(c1nc(NC2CCN(S(=O)(=O)c3cnn(C)c3)CC2)ncc1C#N)C1CCCC1 | CDK4 (Homo sapiens, UniProt P11802) | 2.5 to 10 nM |
| Cn1cc(S(=O)(=O)N2CCC(Nc3ncc(C#N)c(NC4CC(F)(F)C4)n3)CC2)cn1 | CDK4 (Homo sapiens, UniProt P11802) | 10 to 50 nM |

Tell me the measured IC50 of `O=S(=O)(c1ccc(Br)cc1)N1CCC(Nc2ncc(C(F)(F)F)c(C=C3CCCC3)n2)CC1` , please.
100 to 1000 nM

# repeat for `Cn1cc(-c2ccc(S(=O)(=O)N3CCC(Nc4ncc(C#N)c(N[C@H]5CCC[C@H]5O)n4)CC3)cc2)cn1`
2.5 to 10 nM

* * *

IC50 for assorted compounds
- System Name: CDK4 (Homo sapiens)
- Construct: purchased Carna Company
- Assay: CDK enzymology experiment in vitro, capillary mobility shift assay (MSA)
- Assay type: biochemical
- Measurement Context: read-out: CDK4 (nM) inhibitory IC50

// known answers, use as guide
| Compound | System Name | IC50 |
| --- | --- | --- |
| Cn1ccc(S(=O)(=O)N2CCC(Nc3ncc(C#N)c(NC4CCCC4)n3)CC2)n1 | CDK4 (Homo sapiens) | 10 to 50 nM |
| Cn1cc(-c2ccc(S(=O)(=O)N3CCC(Nc4ncc(C(F)(F)F)c(O[C@H]5CCOC5)n4)CC3)cc2)cn1 | CDK4 (Homo sapiens) | 0.5 to 2.5 nM |
| CN(C)C1CCN(c2ccc(S(=O)(=O)N3CCC(Nc4ncc(C(F)(F)F)c(O[C@H]5CCOC5)n4)CC3)cc2)CC1 | CDK4 (Homo sapiens) | 0.5 to 2.5 nM |
| CC(C)n1cc(S(=O)(=O)N2CCC(Nc3ncc(C(F)(F)F)c(O[C@H]4CCOC4)n3)CC2)cn1 | CDK4 (Homo sapiens) | 10 to 50 nM |
| Cn1cc(S(=O)(=O)N2CCC(Nc3ncc(C#N)c(NC4CCCC4(F)F)n3)CC2)cn1 (centres unmarked) | CDK4 (Homo sapiens) | 2.5 to 10 nM |
| O=S(=O)(c1cnn(S(=O)(=O)c2cn[nH]c2)c1)N1CCC(Nc2ncc(C(F)(F)F)c(O[C@H]3CCOC3)n2)CC1 | CDK4 (Homo sapiens) | 2.5 to 10 nM |
| Cn1cc(S(=O)(=O)N2CCC(Nc3ncc(C#N)c(NC4CCOCC4)n3)CC2)cn1 | CDK4 (Homo sapiens) | 100 to 1000 nM |
| O=S(=O)(c1ccc(N2CC3CC(C2)N3)cc1)N1CCC(Nc2ncc(C(F)(F)F)c(O[C@H]3CCOC3)n2)CC1 | CDK4 (Homo sapiens) | 0.5 to 2.5 nM |

Fill in the blank: the reported IC50 of `O=S(=O)(c1ccc(C2=CCNC2)cc1)N1CCC(Nc2ncc(C(F)(F)F)c(O[C@H]3CCOC3)n2)CC1` is ____.
0.5 to 2.5 nM
